Data origin, for the record: patent US20030229053A1

- Measurement Target: HCV NS5B RNA-dependent RNA polymerase (Hepatitis C virus genotype 1b, UniProt P26663)
- Sequence (P26663 2420-3010 limits assumed): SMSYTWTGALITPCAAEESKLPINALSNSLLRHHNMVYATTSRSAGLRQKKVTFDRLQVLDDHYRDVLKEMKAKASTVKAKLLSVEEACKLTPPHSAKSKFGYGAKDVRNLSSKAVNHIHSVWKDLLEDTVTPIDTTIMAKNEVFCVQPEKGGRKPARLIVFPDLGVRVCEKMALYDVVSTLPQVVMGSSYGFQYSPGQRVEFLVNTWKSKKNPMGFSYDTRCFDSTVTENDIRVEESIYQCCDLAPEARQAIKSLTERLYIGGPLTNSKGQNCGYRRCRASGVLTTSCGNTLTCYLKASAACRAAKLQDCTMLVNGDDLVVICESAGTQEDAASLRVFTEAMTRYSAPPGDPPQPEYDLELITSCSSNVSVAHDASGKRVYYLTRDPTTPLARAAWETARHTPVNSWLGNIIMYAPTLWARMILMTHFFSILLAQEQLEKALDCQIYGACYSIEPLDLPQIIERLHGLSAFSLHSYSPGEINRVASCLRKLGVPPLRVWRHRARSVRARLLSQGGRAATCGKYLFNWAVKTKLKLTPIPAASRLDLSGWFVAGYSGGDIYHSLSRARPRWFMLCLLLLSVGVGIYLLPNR
- Assay Comment: In vitro RNA-dependent RNA polymerase assay (Assay 1), polyA/oligo dT, TCA precipitation
- Type: biochemical
- Condition Notes: polyA/oligo dT template/primer, 200 ng NS5B, 2 h at 22° C.; read-out: RNA pol Assay 1 IC50 (μm)
Here, each record is paired with measured IC50 data.

Here's what some known entries look like.
INSERT INTO measurements (compound, endpoint_result) VALUES
  ('O=C(O)[C@H](Cc1ccccc1)N(Cc1ccc(-c2cccc(F)c2)o1)C(=O)c1ccc(Cl)cc1Cl', '< 5 µM'),
  ('O=C(O)[C@H](Cc1ccccc1)N(Cc1cnc(N2CCCCC2)s1)C(=O)c1ccc(Cl)cc1Cl', '< 5 µM'),
  ('COc1cc(C)c(S(=O)(=O)N(Cc2c(C(F)(F)F)nn(C)c2Oc2ccc(Cl)cc2Cl)[C@@H](Cc2ccccc2)C(=O)O)c(C)c1C', '5 to 20 µM'),
  ('O=C(O)[C@H](Cc1ccccc1)N(Cc1cccc(Cl)c1)C(=O)c1ccc(Cl)cc1Cl', '< 5 µM');

Ask: IC50 for C=CCN(C(=O)c1ccc(Cl)cc1I)C(Cc1ccccc1)C(=O)O (stereo not shown) ?
Result: 5 to 20 µM

Ask: IC50 for COC(=O)c1ccc(-c2ccc(CN([C@@H](Cc3ccccc3)C(=O)O)S(=O)(=O)c3c(C)cc(OC)c(C)c3C)cc2)o1 ?
Result: > 20 µM

Ask: IC50 for O=C(O)[C@H](Cc1ccccc1)N(Cc1ccc(-c2ccc(Cl)s2)s1)C(=O)c1ccc(Cl)cc1Cl ?
Result: < 5 µM

Ask: IC50 for O=C(O)[C@H](Cc1ccccc1)N(Cc1ccc(-c2ccc(F)c(Cl)c2)s1)C(=O)c1ccc(Cl)cc1Cl ?
Result: < 5 µM

Ask: IC50 for O=C(O)[C@H](Cc1ccccc1)N(Cc1cccc(Br)c1)C(=O)c1ccccc1Cl ?
Result: > 20 µM

Ask: IC50 for O=C(O)[C@H](Cc1ccccc1)N(Cc1ccc(-c2ccc(Cl)s2)o1)C(=O)c1ccc(Cl)cc1Cl ?
Result: < 5 µM
